# Tested Target: Hepatocyte growth factor receptor (Homo sapiens)
# Sequence (P08581 whole entry): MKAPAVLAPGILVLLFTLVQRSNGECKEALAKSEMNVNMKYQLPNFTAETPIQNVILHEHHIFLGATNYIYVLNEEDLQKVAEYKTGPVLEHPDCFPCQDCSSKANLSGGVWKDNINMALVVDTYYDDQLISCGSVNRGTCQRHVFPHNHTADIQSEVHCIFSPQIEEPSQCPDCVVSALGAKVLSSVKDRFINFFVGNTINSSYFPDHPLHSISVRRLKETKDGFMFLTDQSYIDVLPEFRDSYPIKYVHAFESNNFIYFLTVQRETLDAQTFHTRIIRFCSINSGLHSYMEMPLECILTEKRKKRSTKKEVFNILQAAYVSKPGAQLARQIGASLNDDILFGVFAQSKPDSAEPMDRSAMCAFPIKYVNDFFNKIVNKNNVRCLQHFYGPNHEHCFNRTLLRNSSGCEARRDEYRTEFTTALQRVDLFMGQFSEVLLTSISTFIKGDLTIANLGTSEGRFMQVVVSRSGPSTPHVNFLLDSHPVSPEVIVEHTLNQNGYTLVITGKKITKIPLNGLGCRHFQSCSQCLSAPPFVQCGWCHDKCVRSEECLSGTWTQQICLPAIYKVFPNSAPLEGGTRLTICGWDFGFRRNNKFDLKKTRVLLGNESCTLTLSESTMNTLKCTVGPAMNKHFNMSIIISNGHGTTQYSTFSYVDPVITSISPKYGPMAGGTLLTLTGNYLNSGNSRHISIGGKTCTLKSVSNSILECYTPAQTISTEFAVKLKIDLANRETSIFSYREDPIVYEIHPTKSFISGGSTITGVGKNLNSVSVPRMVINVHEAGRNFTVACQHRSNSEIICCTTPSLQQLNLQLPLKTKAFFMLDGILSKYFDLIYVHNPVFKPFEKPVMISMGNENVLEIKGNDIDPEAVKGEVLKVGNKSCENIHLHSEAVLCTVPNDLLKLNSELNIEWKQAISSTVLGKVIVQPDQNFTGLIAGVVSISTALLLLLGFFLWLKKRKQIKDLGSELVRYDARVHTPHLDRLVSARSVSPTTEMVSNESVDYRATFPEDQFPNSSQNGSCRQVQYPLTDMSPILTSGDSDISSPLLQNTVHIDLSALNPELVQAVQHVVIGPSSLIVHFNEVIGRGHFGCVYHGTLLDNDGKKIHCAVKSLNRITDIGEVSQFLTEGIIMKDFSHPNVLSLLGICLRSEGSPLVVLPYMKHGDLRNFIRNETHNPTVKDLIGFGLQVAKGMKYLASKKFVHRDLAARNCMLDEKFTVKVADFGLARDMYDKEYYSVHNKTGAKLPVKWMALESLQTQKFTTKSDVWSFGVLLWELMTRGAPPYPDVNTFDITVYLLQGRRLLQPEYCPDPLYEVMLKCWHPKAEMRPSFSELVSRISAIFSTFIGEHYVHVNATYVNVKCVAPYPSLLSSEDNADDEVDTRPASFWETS
pIC50: −log10 of the molar value.

{"columns": ["Smiles Data", "pIC50"],
 "data": [
  ["CCCC(=O)Nc1cc2c(Oc3ccc(NC(=O)CCCc4ccc(OC)cc4)cc3F)ncnc2cc1OC", 6.22],
  ["CCCCC(=O)Nc1cc2c(Oc3ccc(NC(=O)CCCc4ccc(OC)cc4)cc3F)ncnc2cc1OC", 6.08],
  ["COc1cc2ncnc(Oc3ccc(NC(=O)CCCc4ccsc4)cc3F)c2cc1NC(=O)CCC(C)C", 5.26],
  ["CCC(=O)Nc1cc2c(Oc3ccc(NC(=O)c4sc(-c5ccccc5)nc4C)cc3F)cccc2cc1OC", 7.15],
  ["C=CC(=O)Nc1cc2c(Oc3ccc(NC(=O)n4c(=O)c(-c5ccccc5)c(C)n4C)cc3F)cccc2cc1OC", 9.59],
  ["CCCCC(=O)Nc1cc2c(Oc3ccc(NC(=O)CCCc4ccc(C)cc4)cc3F)ncnc2cc1OC", 5.70],
  ["C/C=C/C(=O)Nc1cc2c(Oc3ccc(NC(=O)CCCc4ccc(F)cc4)cc3F)ncnc2cc1OC", 6.17],
  ["CCCCC(=O)Nc1cc2c(Oc3ccc(NC(=O)CCCc4ccsc4)cc3F)ncnc2cc1OC", 5.81],
  ["CCC(=O)Nc1cc2c(Oc3ccc(NC(=O)NCCC4CCCCC4)cc3F)ncnc2cc1OC", 6.84]
]}

###

# Tested Target: Epidermal growth factor receptor (Homo sapiens, UniProt P00533, L858R)
# Sequence (P00533 25-1210 L858R limits assumed): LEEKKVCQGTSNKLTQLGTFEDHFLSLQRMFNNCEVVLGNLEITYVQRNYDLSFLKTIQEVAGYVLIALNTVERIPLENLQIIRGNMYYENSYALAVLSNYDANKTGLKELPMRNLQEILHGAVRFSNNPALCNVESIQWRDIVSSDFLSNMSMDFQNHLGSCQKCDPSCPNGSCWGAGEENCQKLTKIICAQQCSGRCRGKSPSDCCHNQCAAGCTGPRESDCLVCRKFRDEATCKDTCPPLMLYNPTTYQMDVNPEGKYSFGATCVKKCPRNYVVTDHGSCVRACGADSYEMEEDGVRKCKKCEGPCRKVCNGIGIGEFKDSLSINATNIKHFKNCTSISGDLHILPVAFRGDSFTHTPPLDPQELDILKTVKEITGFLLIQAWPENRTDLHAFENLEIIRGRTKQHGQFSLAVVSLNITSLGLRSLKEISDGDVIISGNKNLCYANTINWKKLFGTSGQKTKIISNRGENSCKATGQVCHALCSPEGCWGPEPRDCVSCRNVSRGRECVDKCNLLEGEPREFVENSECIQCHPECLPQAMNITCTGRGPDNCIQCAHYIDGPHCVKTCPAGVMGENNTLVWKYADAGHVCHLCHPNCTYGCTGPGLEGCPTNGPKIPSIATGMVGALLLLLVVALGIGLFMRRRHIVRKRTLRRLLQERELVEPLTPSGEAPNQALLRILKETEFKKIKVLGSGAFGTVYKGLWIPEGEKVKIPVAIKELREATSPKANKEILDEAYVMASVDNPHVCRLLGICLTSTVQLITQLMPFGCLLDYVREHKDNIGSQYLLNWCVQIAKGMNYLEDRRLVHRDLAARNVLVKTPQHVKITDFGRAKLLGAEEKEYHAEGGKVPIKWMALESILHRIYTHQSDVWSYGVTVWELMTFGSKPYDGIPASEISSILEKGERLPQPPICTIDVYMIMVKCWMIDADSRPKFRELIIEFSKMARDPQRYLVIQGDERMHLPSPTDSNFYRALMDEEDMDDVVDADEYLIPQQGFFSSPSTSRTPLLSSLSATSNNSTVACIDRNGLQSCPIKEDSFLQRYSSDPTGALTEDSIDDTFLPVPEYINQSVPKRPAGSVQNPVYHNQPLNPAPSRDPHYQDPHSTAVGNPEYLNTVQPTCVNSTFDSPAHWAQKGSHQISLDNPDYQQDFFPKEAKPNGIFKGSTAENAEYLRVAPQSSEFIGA
# Assay Details: biochemical
pIC50: −log10 of the molar value.
pIC50 values by entry
Recorded Metric: pIC50

{"columns": ["Smiles Data", "Recorded Metric", "Censoring Qualifier", "Number"],
 "data": [
  ["C/C=C/C(=O)Nc1cc2c(Oc3ccc(NC(=O)CCCc4ccc(C)cc4)cc3F)ncnc2cc1OC", "pIC50", "<", 5.00],
  ["CCC(=O)Nc1cc2c(Oc3ccc(NC(=O)NCCc4csc(Br)c4)cc3F)ncnc2cc1OC", "pIC50", "<", 5.00],
  ["C=CC(=O)Nc1cc2c(Oc3ccc(NC(=O)CCCc4ccc(OC)cc4)cc3F)ncnc2cc1OC", "pIC50", "=", 6.16],
  ["C=CC(=O)Nc1cc2c(Oc3ccc(NC(=O)n4c(=O)c(-c5ccccc5)c(C)n4C)cc3F)cccc2cc1OC", "pIC50", "=", 7.17],
  ["CCC(=O)Nc1cc2c(Oc3ccc(NC(=O)c4c(-c5c(Cl)cccc5Cl)noc4C)cc3F)cccc2cc1OC", "pIC50", "<", 5.00],
  ["CCCC(=O)Nc1cc2c(Oc3ccc(NC(=O)CCCc4ccccc4)cc3F)ncnc2cc1OC", "pIC50", "=", 5.33],
  ["C=CC(=O)Nc1cc2c(Oc3ccc(NC(=O)NCCC4CCCCC4)cc3F)ncnc2cc1OC", "pIC50", "=", 5.86],
  ["CCCCC(=O)Nc1cc2c(Oc3ccc(NC(=O)CCCc4ccc(OC)cc4)cc3F)ncnc2cc1OC", "pIC50", "<", 5.00],
  ["CCCC(=O)Nc1cc2c(Oc3ccc(NC(=O)c4c(-c5c(Cl)cccc5Cl)noc4C)cc3F)cccc2cc1OC", "pIC50", "<", 5.00],
  ["C=CC(=O)Nc1cc2c(Oc3ccc(NC(=O)NCCc4ccc(OC)c(OC)c4)cc3F)ncnc2cc1OC", "pIC50", "=", 5.38],
  ["CCC(=O)Nc1cc2c(Oc3ccc(NC(=O)CCCc4ccc(C)cc4)cc3F)ncnc2cc1OC", "pIC50", "<", 5.00],
  ["C=CC(=O)Nc1cc2c(Oc3ccc(NC(=O)CCCc4ccc(F)cc4)cc3F)ncnc2cc1OC", "pIC50", "=", 5.97]
]}

###

# Tested on: PC-9
# Assay Details: Antiproliferative activity against human PC-9 cells overexpressing c-Met and EGFR assessed as reduction in cell viability incubated for 72 hrs by MTT assay
# Format: functional, cell-based
# Assay Context: PC-9, 72 h

{"columns": ["Smiles Data", "Units Text", "Censoring Qualifier", "IC50"],
 "data": [
  ["C=CC(=O)Nc1cc2c(Oc3ccc(NC(=O)NCCc4ccc(OC)c(OC)c4)cc3F)ncnc2cc1OC", "µM", "=", 2.48],
  ["C/C=C/C(=O)Nc1cc2c(Oc3ccc(NC(=O)CCCc4ccccc4)cc3F)ncnc2cc1OC", "µM", "=", 5.78],
  ["CCC(=O)Nc1cc2c(Oc3ccc(NC(=O)c4c(-c5c(Cl)cccc5Cl)noc4C)cc3F)cccc2cc1OC", "µM", "=", 5.22],
  ["C=CC(=O)Nc1cc2c(Oc3ccc(NC(=O)CCCc4ccc(C)cc4)cc3F)ncnc2cc1OC", "µM", "=", 7.67],
  ["CCC(=O)Nc1cc2c(Oc3ccc(NC(=O)CCCc4ccsc4)cc3F)ncnc2cc1OC", "µM", "=", 4.03],
  ["CCC(=O)Nc1cc2c(Oc3ccc(NC(=O)NCCc4csc(Br)c4)cc3F)ncnc2cc1OC", "µM", "=", 4.97],
  ["C=CC(=O)Nc1cc2c(Oc3ccc(NC(=O)NCCc4csc(Br)c4)cc3F)ncnc2cc1OC", "µM", "=", 3.64],
  ["CCCCC(=O)Nc1cc2c(Oc3ccc(NC(=O)CCCc4ccc(OC)cc4)cc3F)ncnc2cc1OC", "µM", ">", 50],
  ["CCC(=O)Nc1cc2c(Oc3ccc(NC(=O)c4sc(-c5ccccc5)nc4C)cc3F)cccc2cc1OC", "µM", "=", 2.94],
  ["CCCCC(=O)Nc1cc2c(Oc3ccc(NC(=O)CCCc4ccc(F)cc4)cc3F)ncnc2cc1OC", "µM", ">", 50],
  ["C/C=C/C(=O)Nc1cc2c(Oc3ccc(NC(=O)c4sc(-c5ccccc5)nc4C)cc3F)cccc2cc1OC", "µM", ">", 50],
  ["C=CC(=O)Nc1cc2c(Oc3ccc(NC(=O)c4c(-c5c(Cl)cccc5Cl)noc4C)cc3F)cccc2cc1OC", "µM", "=", 6.73],
  ["CCC(=O)Nc1cc2c(Oc3ccc(NC(=O)NCCC4CCCCC4)cc3F)ncnc2cc1OC", "µM", ">", 50]
]}

###

So I've got IC50 readings for Epidermal growth factor receptor (Homo sapiens), take a look.
Recorded Metric: IC50

{"columns": ["Smiles Data", "Result"],
 "data": [
  ["CCCC(=O)Nc1cc2c(Oc3ccc(NC(=O)c4c(-c5c(Cl)cccc5Cl)noc4C)cc3F)cccc2cc1OC", "> 10 µM"],
  ["CCCCC(=O)Nc1cc2c(Oc3ccc(NC(=O)CCCc4ccc(C)cc4)cc3F)ncnc2cc1OC", "> 10 µM"],
  ["C/C=C/C(=O)Nc1cc2c(Oc3ccc(NC(=O)CCCc4ccc(OC)cc4)cc3F)ncnc2cc1OC", "> 10 µM"],
  ["CCC(=O)Nc1cc2c(Oc3ccc(NC(=O)CCCc4ccc(OC)cc4)cc3F)ncnc2cc1OC", "> 10 µM"],
  ["CCC(=O)Nc1cc2c(Oc3ccc(NC(=O)c4c(-c5c(Cl)cccc5Cl)noc4C)cc3F)cccc2cc1OC", "> 10 µM"],
  ["CCCC(=O)Nc1cc2c(Oc3ccc(NC(=O)CCCc4ccc(C)cc4)cc3F)ncnc2cc1OC", "> 10 µM"],
  ["CCC(=O)Nc1cc2c(Oc3ccc(NC(=O)NCCC4CCCCC4)cc3F)ncnc2cc1OC", "4.69 µM"],
  ["CCC(=O)Nc1cc2c(Oc3ccc(NC(=O)CCCc4ccsc4)cc3F)ncnc2cc1OC", "> 10 µM"],
  ["CCCCC(=O)Nc1cc2c(Oc3ccc(NC(=O)CCCc4ccc(OC)cc4)cc3F)ncnc2cc1OC", "> 10 µM"],
  ["COc1cc2ncnc(Oc3ccc(NC(=O)CCCc4ccc(F)cc4)cc3F)c2cc1NC(=O)CCC(C)C", "> 10 µM"],
  ["C/C=C/C(=O)Nc1cc2c(Oc3ccc(NC(=O)CCCc4ccsc4)cc3F)ncnc2cc1OC", "> 10 µM"],
  ["C=CC(=O)Nc1cc2c(Oc3ccc(NC(=O)NCCc4csc(Br)c4)cc3F)ncnc2cc1OC", "2.07 µM"],
  ["C/C=C/C(=O)Nc1cc2c(Oc3ccc(NC(=O)CCCc4ccc(C)cc4)cc3F)ncnc2cc1OC", "7.65 µM"],
  ["C=CC(=O)Nc1cc2c(Oc3ccc(NC(=O)CCCc4ccc(F)cc4)cc3F)ncnc2cc1OC", "0.782 µM"],
  ["C/C=C/C(=O)Nc1cc2c(Oc3ccc(NC(=O)n4c(=O)c(-c5ccccc5)c(C)n4C)cc3F)cccc2cc1OC", "4.83 µM"],
  ["C=CC(=O)Nc1cc2c(Oc3ccc(NC(=O)NCCC4CCCCC4)cc3F)ncnc2cc1OC", "1.28 µM"],
  ["C=CC(=O)Nc1cc2c(Oc3ccc(NC(=O)CCCc4ccc(C)cc4)cc3F)ncnc2cc1OC", "1.79 µM"],
  ["C=CC(=O)Nc1cc2c(Oc3ccc(NC(=O)CCCc4ccsc4)cc3F)ncnc2cc1OC", "> 10 µM"],
  ["C/C=C/C(=O)Nc1cc2c(Oc3ccc(NC(=O)CCCc4ccc(F)cc4)cc3F)ncnc2cc1OC", "4.54 µM"],
  ["CCC(=O)Nc1cc2c(Oc3ccc(NC(=O)NCCc4ccc(OC)c(OC)c4)cc3F)ncnc2cc1OC", "> 10 µM"],
  ["CCC(=O)Nc1cc2c(Oc3ccc(NC(=O)NCCc4csc(Br)c4)cc3F)ncnc2cc1OC", "> 10 µM"],
  ["C/C=C/C(=O)Nc1cc2c(Oc3ccc(NC(=O)c4c(-c5c(Cl)cccc5Cl)noc4C)cc3F)cccc2cc1OC", "> 10 µM"],
  ["CCCC(=O)Nc1cc2c(Oc3ccc(NC(=O)CCCc4ccsc4)cc3F)ncnc2cc1OC", "> 10 µM"]
]}
